Origin of measurements: ChEMBL document CHEMBL3046928

- assayed target: Acetylcholinesterase (Homo sapiens)
- Sequence (P22303 whole entry): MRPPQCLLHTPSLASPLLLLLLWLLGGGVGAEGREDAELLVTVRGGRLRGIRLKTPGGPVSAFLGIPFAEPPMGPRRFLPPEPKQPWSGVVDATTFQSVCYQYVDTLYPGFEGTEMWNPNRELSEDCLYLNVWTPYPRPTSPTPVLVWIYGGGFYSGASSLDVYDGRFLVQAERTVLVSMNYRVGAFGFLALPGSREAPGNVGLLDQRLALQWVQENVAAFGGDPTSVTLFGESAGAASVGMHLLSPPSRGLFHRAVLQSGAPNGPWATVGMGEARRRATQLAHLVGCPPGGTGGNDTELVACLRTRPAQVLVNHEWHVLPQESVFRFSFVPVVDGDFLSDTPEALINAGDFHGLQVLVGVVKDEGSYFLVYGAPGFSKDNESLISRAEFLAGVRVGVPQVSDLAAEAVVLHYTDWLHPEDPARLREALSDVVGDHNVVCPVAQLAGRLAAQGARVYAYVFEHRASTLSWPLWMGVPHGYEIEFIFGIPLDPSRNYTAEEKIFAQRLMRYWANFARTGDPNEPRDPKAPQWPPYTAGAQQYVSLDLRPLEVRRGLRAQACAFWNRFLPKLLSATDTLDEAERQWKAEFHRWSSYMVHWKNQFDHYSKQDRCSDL
- conditions: at 0.1 mg/mL
inhibition by entry:
Your answer is read as %, so omit the unit and give the number.

Some entries whose results are on file:
COc1cc2oc(=O)ccc2c(OC)c1C[C@@H](O)C(C)(C)O = 33.9
COc1ccc2c(OC)c3ccoc3nc2c1OC = 91.3
COc1c2ccccc2nc2occc12 = 12.6
COc1ccc(C(=O)[C@@H]2CO[C@H](c3ccc4c(c3)OCO4)[C@H]2CO)cc1OC = 9.9
COc1c(C[C@H](C)C(C)(C)O)c(=O)n(C)c2ccccc12 [(-)-(S)-EDULININE] = 19.4
COc1c2ccoc2nc2c(OC)cccc12 = 24.3
COc1cc(=O)[nH]c2c(OC)cccc12 = 45.1
COc1c2[nH]c3occc3c(OC)c-2ccc1=O = 51.9

Please give the measured inhibition for this molecule: COc1cc2oc(=O)ccc2c(OC)c1OC 49.7

Please give the measured inhibition for this molecule: COc1cccc2c3c(c(=O)n(C)c12)[C@@H](O)[C@H](O)C(C)(C)O3 (relative stereo) 34.4
